- procedure-details: Human Caco-2 bidirectional permeability A to B and B to A
- Assay type: in vitro ADME
- condition-info: Caco-2, 2 hours, pH 7.4
measurement-label: Papp at 2 h (×10⁻⁶ cm/s)
Numeric answer only, unit ×10⁻⁶ cm/s assumed.

# query: Papp at 2 h of entry "C[C@@H]1Cc2c(ccc3[nH]ncc23)[C@@H](c2ccc(NC3CN(CCCF)C3)c(F)n2)N1CC(F)F"
18

Fill in the blank: the reported Papp at 2 h of "C[C@@H]1Cc2c(ccc3[nH]ncc23)[C@@H](c2ncc(NC3CN(CCCF)C3)cc2F)N1CC(F)(F)CO" is ____.
0.9

For the compound shown here, "C[C@@H]1Cc2c(ccc3[nH]ncc23)[C@@H](c2ccc(NC3CN(CCCF)C3)cn2)N1CC1(F)CC1" , give the reported Papp at 2 h.
2.3

What value of Papp at 2 h has been reported for the following compound? "C[C@@H]1Cc2c(ccc3[nH]ncc23)[C@@H](c2ccc(NC3CN(CCCF)C3)c(F)n2)N1CC(F)(F)F"
12

----------
- procedure-details: Human plasma protein binding (equilibrium dialysis)
- Type: in vitro ADME
- condition-info: dialysis 18 hours
Class assignment keyed on Human plasma protein binding (% free), ranges c1: < 10 % free; c2: ≥ 10 % free and < 20 % free; c3: ≥ 20 % free

Dear colleague, I would appreciate it if you could identify the bin for C[C@@H]1Cc2c(ccc3[nH]nc(F)c23)[C@@H](c2ncc(NC3CN(CCCF)C3)cc2F)N1CC(F)(F)F [Example 33] and reply at your convenience.
c1

Band for C[C@@H]1Cc2c(ccc3[nH]ncc23)[C@@H](c2ccc(N(C)C3CN(CCCF)C3)cn2)N1CC(F)(F)F [Example 34] ?
c2

Category of C[C@@H]1Cc2c(ccc3[nH]ncc23)[C@@H](c2ccc(NC3CN(CCCF)C3)cn2)N1CC(C)(F)F [Example 70] :
c3

Band for COc1cc(NC2CN(CCCF)C2)ncc1[C@@H]1c2ccc3[nH]ncc3c2C[C@@H](C)N1CC1(F)CC1 [Example 9] ?
c3

Sort into band: C[C@@H]1Cc2c(ccc3[nH]ncc23)[C@@H](c2c(F)cc(NC3CN(CCCF)C3)cc2F)N1CC(C)(F)CO (single isomer, unassigned) [Example 23]
c1

Just checking, what class would you give CC1(C)Cc2c(ccc3[nH]ncc23)[C@@H](c2ccc(NC3CN(CCCF)C3)cn2)N1CC(F)F [Example 73] here?
c3

In plain terms, what class is C[C@@H]1Cc2c(ccc3[nH]ncc23)[C@@H](c2ncc(NC3CN(CCCF)C3)cc2F)N1CC(F)(F)CO [Example 31] ?
c3

Textbook exercise: identify the category of the molecule given here, C[C@@H]1Cc2c(ccc3[nH]ncc23)[C@@H](c2c(F)cc(NC3CN(CCCF)C3)cc2F)N1CC(F)(F)CO [Example 5] , according to its measured value.
c1

Which class is correct for the following molecule? COc1cc(NC2CN(CCCF)C2)ccc1[C@@H]1c2ccc3[nH]ncc3c2C[C@@H](C)N1CC(F)F [Example 21]
c2

Any idea which band COc1cc(N(C)C2CN(CCCF)C2)ccc1[C@@H]1c2ccc3[nH]ncc3c2C[C@@H](C)N1CC1(F)CC1 [Example 52] is in?
c2

Would you mind sorting COc1cc(NC2CN(CCCF)C2)ccc1[C@@H]1c2ccc3[nH]ncc3c2C[C@@H](C)N1CC(C)(C)F [Example 64] into the appropriate category?
c2

Could you place COc1cc(NC2CN(CCCF)C2)ccc1[C@@H]1c2ccc3[nH]ncc3c2C[C@@H](C)N1CC1(F)CC1 [Example 6] in its proper category? Many thanks.
c3

Sort C[C@@H]1Cc2c(ccc3[nH]ncc23)[C@@H](c2ccc(NC3CN(CCCF)C3)c(F)c2)N1CC(F)(F)F [Example 41] into one of the categories.
c1

Returns: class label. Input: COC[C@](C)(F)CN1[C@H](c2ccc(NC3CN(CCCF)C3)cc2OC)c2ccc3[nH]ncc3c2C[C@H]1C (single isomer, unassigned) [Example 14]
c2

Class label required: C[C@@H]1Cc2c(ccc3[nH]nc(F)c23)[C@@H](c2ccc(NC3CN(CCCF)C3)cn2)N1CC(F)(F)CO [Example 61]
c3

Textbook exercise: identify the category of the molecule given here, C[C@@H]1Cc2c(ccc3[nH]ncc23)[C@@H](c2ccc(NC3CN(CCCF)C3)cn2)N1CC(F)(F)CO [Example 16] , according to its measured value.
c3

Exam item: assign C[C@@H]1Cc2c(ccc3[nH]nc(F)c23)[C@@H](c2ccc(NC3CN(CCCF)C3)c(F)n2)N1CC(F)(F)CO [Example 62] to the correct category.
c2

The entry to classify is COc1cc(NC2CN(CCCF)C2)ccc1[C@@H]1c2ccc3[nH]ncc3c2C[C@@H](C)N1CC(F)(F)CO [Example 60] ; which class holds it?
c3
